- Tested Target: Rho-associated protein kinase 2 (Homo sapiens) (UniProt O75116)
- Sequence (O75116 whole entry, looked up): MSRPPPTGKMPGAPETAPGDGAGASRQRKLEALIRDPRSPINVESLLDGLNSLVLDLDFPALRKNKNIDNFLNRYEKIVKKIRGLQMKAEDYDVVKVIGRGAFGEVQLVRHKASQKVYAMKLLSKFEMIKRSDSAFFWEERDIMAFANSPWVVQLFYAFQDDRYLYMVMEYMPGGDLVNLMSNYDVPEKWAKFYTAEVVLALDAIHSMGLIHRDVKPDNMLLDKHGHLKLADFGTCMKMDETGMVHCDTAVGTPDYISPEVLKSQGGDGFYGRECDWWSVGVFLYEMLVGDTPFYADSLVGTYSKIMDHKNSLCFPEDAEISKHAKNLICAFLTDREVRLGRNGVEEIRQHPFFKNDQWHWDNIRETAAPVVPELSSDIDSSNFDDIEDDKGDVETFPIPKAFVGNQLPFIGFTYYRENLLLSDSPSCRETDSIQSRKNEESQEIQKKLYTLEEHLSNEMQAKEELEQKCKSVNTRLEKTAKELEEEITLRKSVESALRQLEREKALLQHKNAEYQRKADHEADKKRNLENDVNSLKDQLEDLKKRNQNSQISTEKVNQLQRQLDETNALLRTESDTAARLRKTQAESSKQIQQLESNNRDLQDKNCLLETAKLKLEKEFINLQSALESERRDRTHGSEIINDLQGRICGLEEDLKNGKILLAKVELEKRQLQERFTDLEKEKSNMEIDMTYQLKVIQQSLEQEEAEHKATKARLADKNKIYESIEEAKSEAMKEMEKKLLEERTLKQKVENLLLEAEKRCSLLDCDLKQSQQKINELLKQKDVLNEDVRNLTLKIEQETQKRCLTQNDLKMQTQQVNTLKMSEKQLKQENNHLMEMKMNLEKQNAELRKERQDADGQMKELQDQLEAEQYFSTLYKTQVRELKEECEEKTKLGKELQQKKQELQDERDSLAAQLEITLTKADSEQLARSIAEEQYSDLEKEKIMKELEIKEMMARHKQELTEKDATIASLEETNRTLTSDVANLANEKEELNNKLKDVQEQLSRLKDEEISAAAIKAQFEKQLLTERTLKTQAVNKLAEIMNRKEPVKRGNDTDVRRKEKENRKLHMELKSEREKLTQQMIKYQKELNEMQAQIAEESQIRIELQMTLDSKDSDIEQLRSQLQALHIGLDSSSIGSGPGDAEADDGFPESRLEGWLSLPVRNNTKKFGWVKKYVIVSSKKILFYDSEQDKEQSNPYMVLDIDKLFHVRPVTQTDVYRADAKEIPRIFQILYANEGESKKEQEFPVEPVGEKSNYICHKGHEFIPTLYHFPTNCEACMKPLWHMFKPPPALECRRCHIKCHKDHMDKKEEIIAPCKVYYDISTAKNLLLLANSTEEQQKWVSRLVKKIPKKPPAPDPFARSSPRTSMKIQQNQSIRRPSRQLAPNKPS
- Measurement Setup: at 1 µM
- Description: GSK_PKIS: ROCK2 mean inhibition at 1 uM [Nanosyn]
Test Readout: inhibition

Some entries whose results are on file:
Cn1c(-c2nonc2N)nc2cnccc21    67.5%
COc1ccc(-c2nn3ncccc3c2-c2ccnc(Nc3ccc(F)c(F)c3)n2)cc1    6.06%
CN1CCC(n2cnc(-c3ccc(F)cc3)c2-c2ccnc(NCCO)n2)CC1    8.52%
CC1=C(C(=O)Nc2ccc3[nH]nc(C)c3c2)C(c2ccc(C(F)(F)F)cc2)CC(=O)N1 (centres undefined)    83.8%
O=C(O[C@H]1CN[C@H](C#Cc2cc3ncnc(Nc4ccc5c(cnn5Cc5ccccc5)c4)c3s2)C1)N1CCOCC1    -1.36%
COc1cccc(Nc2nccc(-c3cnn4ncccc34)n2)c1    15.4%
O=C(O[C@H]1CN[C@H](C#Cc2cc3ncnc(Nc4ccc(OCc5cccc(F)c5)c(Cl)c4)c3s2)C1)N1CCOCC1    8.38%
OCCCNc1nccc(-c2c(-c3ccc(F)cc3)nn3cc(C(F)(F)F)ccc23)n1    2.72%

The record that follows has no inhibition shown yet.
Return inhibition (reported value) for this compound: `COc1ccc(Nc2ncc(-c3ccccc3)o2)cc1OC`
2.22%

###

- Tested Target: Homeodomain-interacting protein kinase 4 (Homo sapiens) (UniProt Q8NE63);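 note: values are mean percent inhibition of HIPK4 from the GSK PKIS kinase screen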
- Sequence (Q8NE63 whole entry): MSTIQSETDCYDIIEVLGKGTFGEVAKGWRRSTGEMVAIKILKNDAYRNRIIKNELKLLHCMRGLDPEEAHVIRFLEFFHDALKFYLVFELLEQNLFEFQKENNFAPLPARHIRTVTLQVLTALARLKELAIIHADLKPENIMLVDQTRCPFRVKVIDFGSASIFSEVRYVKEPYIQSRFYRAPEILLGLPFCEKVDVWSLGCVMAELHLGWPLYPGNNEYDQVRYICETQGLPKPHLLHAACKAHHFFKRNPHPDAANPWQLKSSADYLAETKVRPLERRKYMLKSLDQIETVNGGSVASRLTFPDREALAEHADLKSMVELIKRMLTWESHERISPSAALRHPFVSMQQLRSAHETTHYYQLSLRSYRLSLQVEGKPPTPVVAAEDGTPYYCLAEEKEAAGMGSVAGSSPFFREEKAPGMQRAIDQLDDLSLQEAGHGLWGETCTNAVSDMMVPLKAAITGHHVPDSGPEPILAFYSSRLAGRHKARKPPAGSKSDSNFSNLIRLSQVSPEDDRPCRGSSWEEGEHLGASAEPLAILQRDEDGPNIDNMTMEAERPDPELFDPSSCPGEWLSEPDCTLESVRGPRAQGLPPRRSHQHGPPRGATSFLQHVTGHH
- Measurement Setup: at 1 µM
// reported inhibition for each item listed
// note: answer is a bare numeric in %

Some entries whose results are on file:
O=C1Nc2ccccc2/C1=C1\CCc2cc(O)ccc21    10.8
COc1cc(N2CCN(C(C)C)CC2)ccc1Nc1nc(Nc2cccc3ncccc23)c2cc[nH]c2n1    6.13

The record that follows has no inhibition shown yet.
Return inhibition (reported value) for this compound: `CCN1CCC(C(=O)Nc2n[nH]c3nnc(-c4cccc(F)c4F)cc23)CC1`
4.09

###

- Tested Target: Serine/threonine-protein kinase SIK2 (Homo sapiens)
- Measurement Setup: at 1 µM
Test Readout: inhibition (%)
// note: answer is a bare numeric in %

Cc1cc(O)cc(C)c1/C=C/c1cncc(C(N)=O)c1    37.5

Quote inhibition with test system Serine/threonine-protein kinase SIK2 (Homo sapiens) for `COc1ccc2ncn(-c3cc(O[C@H](C)c4ccccc4C(F)(F)F)c(C(N)=O)s3)c2c1`
5.38

Quote inhibition with test system Serine/threonine-protein kinase SIK2 (Homo sapiens) for `NS(=O)(=O)c1ccc(N/N=C2\C(=O)Nc3ccc(C(=O)NCc4ccncc4)cc32)cc1`;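 note: mean inhibition of SNF1LK2 (QIK) kinase activity, from the GSK PKIS screening panel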
17.1

###

- System: Tyrosine-protein kinase ABL1 (Homo sapiens), P00519 [H396P]
- Measurement Setup: at 1 µM
Test Readout: inhibition (%)
// note: answer is a bare numeric in %

COc1ccc2ncn(-c3cc(O[C@H](C)c4ccccc4C(F)(F)F)c(C(N)=O)s3)c2c1    2.03
CS(=O)(=O)CCNCc1ccc(-c2ccc3ncnc(Nc4ccc(OCc5cccc(C(F)(F)F)c5)cc4)c3c2)o1    4.29
COc1cccc(Nc2nccc(-c3cnn4ncccc34)n2)c1    41.2
NS(=O)(=O)c1ccc(N/N=C2\C(=O)Nc3cccc(CCc4ccncc4)c32)cc1    7.39
N#Cc1cccc(Nc2ncc(-c3ccccc3)o2)c1    26.9

Return inhibition (reported value) for this compound: `CCOc1ccc2c(-c3ccnc(Nc4cc(OC)cc(C(F)(F)F)c4)n3)cnn2n1`
6.23

Return inhibition (reported value) for this compound: `Cc1nnc(-c2cccc(-c3ccc(C(=O)NCC4CC4)cc3)c2)o1`
6.67

Return inhibition (reported value) for this compound: `CCS(=O)(=O)c1ccc(OC)c(Nc2ncc(-c3cccc(F)c3)o2)c1`
85.8

Return inhibition (reported value) for this compound: `CS(=O)(=O)Nc1ccc(-c2ccc3c(NC(=O)C4CC4)n[nH]c3c2)cc1`
17.5

###

- Tested Target: Tyrosine-protein kinase Lck (Homo sapiens) (UniProt P06239);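 note: reported values are mean percent inhibition of Lck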
- Sequence (P06239 2-509 limits assumed): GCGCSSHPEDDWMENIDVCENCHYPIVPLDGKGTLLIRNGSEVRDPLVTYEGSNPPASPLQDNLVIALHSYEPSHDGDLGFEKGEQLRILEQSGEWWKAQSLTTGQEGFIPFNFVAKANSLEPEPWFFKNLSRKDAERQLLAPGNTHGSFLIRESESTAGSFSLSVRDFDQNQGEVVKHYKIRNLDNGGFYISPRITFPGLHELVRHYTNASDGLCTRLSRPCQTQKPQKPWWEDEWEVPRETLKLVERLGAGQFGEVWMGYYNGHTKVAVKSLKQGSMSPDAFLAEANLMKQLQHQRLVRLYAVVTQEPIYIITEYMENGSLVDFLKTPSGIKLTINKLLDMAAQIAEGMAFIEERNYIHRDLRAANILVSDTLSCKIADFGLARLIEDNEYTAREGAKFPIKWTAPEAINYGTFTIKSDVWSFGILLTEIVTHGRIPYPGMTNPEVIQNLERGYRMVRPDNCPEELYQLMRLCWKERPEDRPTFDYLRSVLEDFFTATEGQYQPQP
- Measurement Setup: at 0.1 µM
// reported inhibition for each item listed
// note: answer is a bare numeric in %

Some entries whose results are on file:
CCOc1ccc2c(-c3ccnc(Nc4cc(OC)cc(C(F)(F)F)c4)n3)cnn2n1    1.12
c1ccc(-c2n[nH]cc2-c2ccnc(-c3ccc(OCCn4ccnc4)cc3)c2)nc1    0.89

Return inhibition (reported value) for this molecule: `NC(=O)c1ccc2c(-c3ccnc(NCCCO)n3)c(-c3ccc(F)cc3)nn2c1`
2.46

Return inhibition (reported value) for this molecule: `CNC(=O)c1ncccc1Nc1nc(Nc2cc3c(cc2OC)CCCN3C(=O)CN(C)C)nc2[nH]ccc12`
2.48

###

- Tested Target: SRSF protein kinase 3 (Homo sapiens) (UniProt Q9UPE1);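 note: mean of replicate inhibition values against MSSK1 kinase, profiled within the GSK PKIS kinase inhibitor set screen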
- Sequence (Q9UPE1 whole entry): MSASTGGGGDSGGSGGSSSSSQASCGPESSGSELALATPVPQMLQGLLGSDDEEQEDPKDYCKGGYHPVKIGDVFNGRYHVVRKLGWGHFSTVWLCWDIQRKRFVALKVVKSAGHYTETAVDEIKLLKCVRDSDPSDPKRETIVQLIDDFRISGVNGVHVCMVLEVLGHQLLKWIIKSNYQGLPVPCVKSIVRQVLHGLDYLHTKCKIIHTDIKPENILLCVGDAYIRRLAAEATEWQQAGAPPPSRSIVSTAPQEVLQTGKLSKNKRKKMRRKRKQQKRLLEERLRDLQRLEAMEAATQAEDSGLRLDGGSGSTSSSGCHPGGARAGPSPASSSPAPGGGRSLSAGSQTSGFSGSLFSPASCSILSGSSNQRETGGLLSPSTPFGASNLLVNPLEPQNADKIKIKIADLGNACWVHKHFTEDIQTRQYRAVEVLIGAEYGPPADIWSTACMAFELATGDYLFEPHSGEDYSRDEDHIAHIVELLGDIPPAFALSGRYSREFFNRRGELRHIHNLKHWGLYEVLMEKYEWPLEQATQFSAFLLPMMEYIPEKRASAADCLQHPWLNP
- Measurement Setup: at 0.1 µM
Test Readout: inhibition (%)
// note: answer is a bare numeric in %

Some entries whose results are on file:
COc1ccc(-c2nn3ncccc3c2-c2ccnc(Nc3ccc(F)c(F)c3)n2)cc1    -0.12
CC(C)c1ccc(-c2cc(-c3c[nH]nc3-c3ccccn3)ccn2)cc1    -1.14
Cc1ccc(-c2cc3c(NC(=O)C4CC4)ncnc3o2)cc1    0.82
c1cnn2ncc(-c3ccnc(NCCCN4CCOCC4)n3)c2c1    -0.52

The record that follows has no inhibition shown yet.
Return inhibition (reported value) for this compound: `COc1cccc(Nc2nccc(-c3cnn4ncccc34)n2)c1`
-0.05

###

// reported inhibition for each item listed
- Tested Target: Phosphorylase b kinase gamma catalytic chain, skeletal muscle/heart isoform (Homo sapiens);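 note: values are averaged percent inhibition of PHKG1 kinase activity, from the GSK PKIS inhibitor-set screen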
- Measurement Setup: at 0.1 µM
// note: answer is a bare numeric in %

Some entries whose results are on file:
CCS(=O)(=O)c1ccc(OC)c(Nc2ncc(-c3cccc(C(C)=O)c3)o2)c1    1.7
OCCCNc1nccc(-c2c(-c3ccc(F)cc3)nn3cc(C(F)(F)F)ccc23)n1    2.26
CC1(C)CC(n2cnc(-c3ccc(F)cc3)c2-c2ccnc(N)n2)CC(C)(C)N1    3.51
COc1cc2c(cc1Nc1nc(Nc3cccc(F)c3C(N)=O)c3cc[nH]c3n1)N(C(=O)CN1CCN(C(C)C)CC1)CC2    0.29
Fc1cccc(COc2ccc(Nc3ncncc3C#Cc3ccccc3)cc2Cl)c1    3.8
Cc1ccc(-c2cc3c(NC(=O)C4CC4)ncnc3o2)cc1    3.62

The record that follows has no inhibition shown yet.
Return inhibition (reported value) for this compound: `N#Cc1cccc(Nc2ncc(-c3ccccc3)o2)c1`
2.95

###

// reported inhibition for each item listed
- Tested Target: Serine/threonine-protein kinase D2 (Homo sapiens) (UniProt Q9BZL6)
- Sequence (Q9BZL6 whole entry): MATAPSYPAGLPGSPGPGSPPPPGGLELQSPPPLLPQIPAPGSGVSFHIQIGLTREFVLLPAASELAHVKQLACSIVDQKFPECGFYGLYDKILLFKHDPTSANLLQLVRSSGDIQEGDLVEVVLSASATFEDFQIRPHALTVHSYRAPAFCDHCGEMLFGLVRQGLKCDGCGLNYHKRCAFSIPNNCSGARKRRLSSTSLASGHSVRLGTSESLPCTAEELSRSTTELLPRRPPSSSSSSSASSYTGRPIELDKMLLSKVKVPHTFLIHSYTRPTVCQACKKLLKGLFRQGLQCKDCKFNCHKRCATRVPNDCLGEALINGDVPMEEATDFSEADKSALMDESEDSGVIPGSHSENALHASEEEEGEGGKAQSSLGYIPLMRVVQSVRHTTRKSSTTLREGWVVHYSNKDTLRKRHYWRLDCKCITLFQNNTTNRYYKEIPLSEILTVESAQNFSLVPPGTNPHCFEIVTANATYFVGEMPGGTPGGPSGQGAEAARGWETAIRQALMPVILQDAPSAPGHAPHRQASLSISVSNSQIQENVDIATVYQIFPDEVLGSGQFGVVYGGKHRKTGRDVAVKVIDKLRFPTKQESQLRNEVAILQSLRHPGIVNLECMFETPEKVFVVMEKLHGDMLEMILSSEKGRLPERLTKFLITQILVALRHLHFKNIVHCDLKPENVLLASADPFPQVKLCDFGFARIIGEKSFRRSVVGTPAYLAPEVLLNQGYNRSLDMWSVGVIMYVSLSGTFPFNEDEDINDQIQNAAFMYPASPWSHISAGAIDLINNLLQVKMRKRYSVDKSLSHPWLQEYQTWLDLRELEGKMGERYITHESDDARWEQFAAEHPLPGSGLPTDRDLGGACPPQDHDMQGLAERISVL
- Measurement Setup: at 1 µM
// note: answer is a bare numeric in %

Cc1cc(O)cc(C)c1/C=C/c1cncc(C(=O)OC(C)(C)C)c1    1.78
CS(=O)(=O)Nc1ccc(-c2cc(-c3ccccc3)cc(C(N)=O)c2N)cc1    1.14
Cc1nnc(-c2cccc(-c3ccc(C(=O)NCC4CC4)cc3)c2)o1    7.93
Cn1c(-c2nonc2N)nc2cnccc21    10.4
CN(C)CCNC(=O)Nc1ccc(N(C)c2ccnc(Nc3ccc(CS(C)(=O)=O)cc3)n2)cc1    6.51
COc1cc2c(cc1Nc1nc(Nc3cccc(F)c3C(N)=O)c3cc[nH]c3n1)N(C(=O)CN1CCN(C(C)C)CC1)CC2    8.82
COc1ccccc1-c1cc(/C=C2\C(=O)Nc3ncc(Br)cc32)cc(Br)c1O    6.48
CN(c1ccc(NC(=O)NCCN2CCOCC2)cc1)c1ccnc(Nc2ccc(CS(C)(=O)=O)cc2)n1    1.04
NS(=O)(=O)c1ccc(N/N=C2\C(=O)Nc3ccc(C(=O)NCc4ccncc4)cc32)cc1    18.5
COc1cc(N2CCN(C(C)C)CC2)ccc1Nc1nc(Nc2cccc3ncccc23)c2cc[nH]c2n1    4.37

Quote inhibition with test system Serine/threonine-protein kinase D2 (Homo sapiens) (UniProt Q9BZL6) for `O=C(O[C@H]1CN[C@H](C#Cc2cc3ncnc(Nc4ccc5c(ccn5Cc5cc(F)ccc5F)c4)c3s2)C1)N1CCOCC1`
5.35

Quote inhibition with test system Serine/threonine-protein kinase D2 (Homo sapiens) (UniProt Q9BZL6) for `OCCCNc1nccc(-c2c(-c3ccc(F)cc3)nn3cc(C(F)(F)F)ccc23)n1`
16.9

Quote inhibition with test system Serine/threonine-protein kinase D2 (Homo sapiens) (UniProt Q9BZL6) for `CCN1CCC(C(=O)Nc2n[nH]c3nnc(-c4cccc(F)c4F)cc23)CC1`
0.06

###

- Tested Target: cGMP-dependent protein kinase 2 (Homo sapiens);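 note: reported figure is a mean inhibition value against PRKG2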
- Measurement Setup: at 0.1 µM
Test Readout: inhibition (%)
// note: answer is a bare numeric in %

Some entries whose results are on file:
CCS(=O)(=O)c1ccc(OC)c(Nc2ncc(-c3cccc(F)c3)o2)c1    3.78
COc1cccc(-n2ncc3c(N/N=C/c4ccc(C(=O)NCCN(C)C)cc4)ncnc32)c1    4.28
COc1cc(Nc2ncc(-c3ccccc3)o2)cc(OC)c1    1.74

The record that follows has no inhibition shown yet.
Return inhibition (reported value) for this compound: `Cc1c2ccc(N(C)c3ccnc(Nc4cccc(S(N)(=O)=O)c4)n3)cc2nn1C`
2.54
